Reported pIC50 values are given for each entry in this list.
# System: Plasmodium falciparum
# EXPERIMENTAL_PROTOCOL: Antimalarial activity against Plasmodium falciparum D6 harboring Plasmodium vivax DHFR F57L and S117N mutant infected in RBCs assessed as inhibition of [3H]hypoxanthine incorporation after 72 hrs
# Format: functional, organism-based
Give only the number. pIC50 is defined as minus log10 of concentration in molar units.

- INPUT_SMILES: "CC1(C)N=C(N)N=C(N)N1c1ccc(Cl)cc1"
  pIC50: 8.56
- INPUT_SMILES: "CC1(C)N=C(N)N=C(N)N1OCCCOc1cc(Cl)c(Cl)cc1Cl"
  pIC50: 8.82
- INPUT_SMILES: "CCc1nc(N)nc(N)c1-c1ccc(Cl)cc1"
  pIC50: 8.44

Then there is this compound:
Q: Give reported pIC50 value for `CC1(C)N=C(N)N=C(N)N1OCc1ccc(Cl)c(Cl)c1`
Ans: 9.66

====

# System: Plasmodium falciparum
# EXPERIMENTAL_PROTOCOL: Antimalarial activity against Plasmodium falciparum D6 infected in RBCs assessed as inhibition of [3H]hypoxanthine incorporation after 72 hrs
# Type: functional, organism-based
Attribute: pIC50
To interpret pIC50, take it as minus log10 of a concentration measured in moles per litre.

- COMPOUND: "CC1(C)N=C(N)N=C(N)N1c1ccc(Cl)cc1 [CYCLOGUANIL]"
  REPORTED_PROPERTY: "pIC50"
  NUMERIC_VALUE: 9.93
- COMPOUND: "CC1(C)N=C(N)N=C(N)N1OCc1ccc(Cl)c(Cl)c1 [CLOCIGUANIL]"
  REPORTED_PROPERTY: "pIC50"
  NUMERIC_VALUE: 10.68
- COMPOUND: "CCc1nc(N)nc(N)c1-c1ccc(Cl)cc1 [PYRIMETHAMINE]"
  REPORTED_PROPERTY: "pIC50"
  NUMERIC_VALUE: 10.55

Query compound follows.
Q: Give a short answer stating reported pIC50 for `CC1(C)N=C(N)N=C(N)N1OCCCOc1cc(Cl)c(Cl)cc1Cl` .
Ans: 9.78

====

Item-by-item account of IC50
# Test system: Plasmodium falciparum
# EXPERIMENTAL_PROTOCOL: Antimalarial activity against Plasmodium falciparum TM91c235 harboring DHFR F57L, S58R, T61M, S117T mutant infected in RBCs assessed as inhibition of [3H]hypoxanthine incorporation after 72 hrs
# Assay type: functional, organism-based

Q: Supply measured IC50 of CCc1nc(N)nc(N)c1-c1ccc(Cl)cc1 [PYRIMETHAMINE] in your reply.
Ans: 143 nM

Q: For CC1(C)N=C(N)N=C(N)N1c1ccc(Cl)cc1 [CYCLOGUANIL] , write its IC50.
Ans: 116 nM

Q: Read the entry `CC1(C)N=C(N)N=C(N)N1OCCCOc1cc(Cl)c(Cl)cc1Cl` and write its reported IC50.
Ans: 0.339 nM

Q: Read the entry CC1(C)N=C(N)N=C(N)N1OCc1ccc(Cl)c(Cl)c1 [CLOCIGUANIL] and write its reported IC50.
Ans: 3.16 nM

====

# System: Plasmodium falciparum
# EXPERIMENTAL_PROTOCOL: Antimalarial activity against Plasmodium falciparum D6 harboring Plasmodium vivax DHFR F57L, S58R, T61M, S117T mutant infected in RBCs assessed as inhibition of [3H]hypoxanthine incorporation after 72 hrs
# Format: functional, organism-based
REPORTED_PROPERTY: pIC50
Note: pIC50 values are expressed as the negative base-10 logarithm of concentration in M.

Observe how each entry below is paired with its result.
- INPUT_SMILES: "CC1(C)N=C(N)N=C(N)N1c1ccc(Cl)cc1"
  NUMERIC_VALUE: 6.49
- INPUT_SMILES: "CCc1nc(N)nc(N)c1-c1ccc(Cl)cc1"
  NUMERIC_VALUE: 6.33
- INPUT_SMILES: "CC1(C)N=C(N)N=C(N)N1OCCCOc1cc(Cl)c(Cl)cc1Cl"
  NUMERIC_VALUE: 8.53

Attention now shifts to the item below.
Q: Input `CC1(C)N=C(N)N=C(N)N1OCc1ccc(Cl)c(Cl)c1` , output reported pIC50.
Ans: 7.25
